Hi! I'm sharing some GI50 results obtained with K-562.
The reply must contain the numeric value and, after it, the unit.

Illustrative cases are given below, each with its answer.
MOLECULE: CCOc1ccccc1NC1=C(Cl)C(=O)c2nc(C)ccc2C1=O [AQQ2]
GI50: 341 nM
--
MOLECULE: COc1ccccc1NC1=C(Cl)C(=O)c2nc(C)ccc2C1=O [AQQ1]
GI50: 290 nM
--
MOLECULE: COc1cc(NC2=C(Cl)C(=O)c3nc(C)ccc3C2=O)cc(OC)c1 [AQQ5]
GI50: 381 nM

State its GI50 on K-562: CCOc1ccc(NC2=C(Cl)C(=O)c3nc(C)ccc3C2=O)cc1 [AQQ3]
1170 nM
